Biological target: VN1203-H5N1 neuraminidase (NA) (Influenza A virus, UniProt Q6DPL2)
Experiment: biochemical
Parameters: species or system A/Vietnam/1203/2004 (H5N1)
pIC50: −log10 of the molar value.

cpdSmiles	targetOfAssay	pIC50
CO[C@@H]([C@@H]1OC(C(=O)O)=C[C@H](NC(=N)N)[C@H]1NC(C)=O)[C@H](O)CO	VN1203-H5N1 neuraminidase (NA) (Influenza A virus, UniProt Q6DPL2)	9.39

----------
Target: VN1203-H5N1 neuraminidase (NA) (Influenza A virus)
Test: biochemical
Set-up: species or system A/Vietnam/1203/2004 (H5N1)
Settings: read-out: IC50 of neuraminidase inhibitors

molecule	IC50 [nM]
CCC(CC)[C@H](NC(C)=O)[C@@H]1[C@H](O)[C@@H](C(=O)O)C[C@H]1N=C(N)N [Peramivir]	0.24

----------
Target: TX001-H5N1 wild-type neuraminidase (NA) (Influenza A virus)

cpdSmiles	IC50 / nM
CCC(CC)[C@H](NC(C)=O)[C@@H]1[C@H](O)[C@@H](C(=O)O)C[C@H]1N=C(N)N	0.195

----------
Tested on: VN1203-H5N1
Assay: microbe, parasite or virus in culture
Format: cell-based, A/Vietnam/1203/2004 (H5N1)
Details: read-out: IC50 of polymerase inhibitor
observationType: IC50 (nM)

molecule	val
O=C1c2c(O)c(=O)ccn2N([C@@H]2c3ccccc3SCc3c2ccc(F)c3F)[C@@H]2COCCN12 [Baloxavir acid]	1.25
